Data provenance is ChEMBL document CHEMBL2150947.

target-or-system: Serine/threonine-protein kinase B-raf (Homo sapiens, UniProt P15056, V600E)
Sequence (P15056 2-766 V600E limits assumed): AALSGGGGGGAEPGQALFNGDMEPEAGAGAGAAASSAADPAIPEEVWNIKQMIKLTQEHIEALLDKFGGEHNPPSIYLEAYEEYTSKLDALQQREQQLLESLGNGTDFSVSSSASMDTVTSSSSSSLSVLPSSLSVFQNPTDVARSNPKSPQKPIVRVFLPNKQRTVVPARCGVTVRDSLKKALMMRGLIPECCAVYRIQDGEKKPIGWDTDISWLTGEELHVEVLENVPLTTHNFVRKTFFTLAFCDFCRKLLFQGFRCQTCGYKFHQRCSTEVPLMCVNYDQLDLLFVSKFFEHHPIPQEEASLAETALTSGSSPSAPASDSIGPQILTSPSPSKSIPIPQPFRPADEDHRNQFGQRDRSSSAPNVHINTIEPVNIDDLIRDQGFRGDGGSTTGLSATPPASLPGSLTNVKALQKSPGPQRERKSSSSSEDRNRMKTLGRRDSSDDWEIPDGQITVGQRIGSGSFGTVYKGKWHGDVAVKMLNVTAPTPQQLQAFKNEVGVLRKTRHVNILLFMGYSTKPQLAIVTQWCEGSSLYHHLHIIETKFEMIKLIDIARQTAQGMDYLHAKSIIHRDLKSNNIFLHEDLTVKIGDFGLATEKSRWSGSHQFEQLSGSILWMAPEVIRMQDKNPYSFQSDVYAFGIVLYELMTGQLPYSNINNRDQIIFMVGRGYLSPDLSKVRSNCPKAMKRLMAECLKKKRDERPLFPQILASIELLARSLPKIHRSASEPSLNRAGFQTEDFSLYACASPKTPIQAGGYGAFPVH
method-description: Inhibition of full length B-Raf V600E mutant
metric-name: pIC50
Hey, just a heads up that pIC50 is the negative log base 10 of the concentration in molar.

Example results:
sample-smiles	pIC50
COc1n[nH]c2ncc(NC(=O)c3c(F)ccc(NC(=O)c4ccccc4)c3F)cc12	7.41
CC(C)(C#N)c1cccc(C(=O)Nc2ccc(F)c(C(=O)Nc3cnc4[nH]ccc4c3)c2F)c1	8.17
COc1n[nH]c2ncc(NC(=O)c3cc(NC(=O)c4cccc(C(C)(C)C#N)c4)ccc3Cl)cc12	8.92

[ask] Request body: readout pIC50, system Serine/threonine-protein kinase B-raf (Homo sapiens, UniProt P15056, V600E), query CC(C)(C#N)c1cccc(C(=O)Nc2ccc(F)c(C(=O)Nc3cnc4[nH]ncc4c3)c2F)c1 . Return the value.
[reply] 8.46
